Target: human M1 receptor (hCHRM1) (Homo sapiens, UniProt P11229)
Construct: expressed in transfected cells; host or cells: CHO-K1
Sequence (P11229 whole entry): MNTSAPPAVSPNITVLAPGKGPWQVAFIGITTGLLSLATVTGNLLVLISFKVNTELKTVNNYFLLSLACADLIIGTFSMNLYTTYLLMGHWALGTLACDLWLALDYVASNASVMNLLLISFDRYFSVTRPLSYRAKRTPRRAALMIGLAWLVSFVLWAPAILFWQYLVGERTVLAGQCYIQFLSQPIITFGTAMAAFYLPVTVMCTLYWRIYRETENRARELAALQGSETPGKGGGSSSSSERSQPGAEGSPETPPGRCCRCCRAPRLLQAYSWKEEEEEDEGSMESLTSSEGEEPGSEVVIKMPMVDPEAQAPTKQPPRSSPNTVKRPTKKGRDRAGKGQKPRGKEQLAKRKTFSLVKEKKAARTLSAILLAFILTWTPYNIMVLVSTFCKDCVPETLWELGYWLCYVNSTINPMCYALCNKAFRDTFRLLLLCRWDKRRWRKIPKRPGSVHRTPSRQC
Experiment: Measurement of M1 receptor positive allosteric modulator (M1PAM) activity, calcium fluorescence (FLIPRtetra) in CHO-K1 cells in the presence of acetylcholine at EC20
Assay type: cell-based
Conditions: test compound 10 μM, in the presence of acetylcholine at EC20 (final 0.6 nM), CHO-K1 cells expressing hCHRM1
# maps each entry to its activity (%) at 10 μM
Entry rule: numbers only, all in %.

A selection of reference data follows.
* Cc1ccc(Oc2nccc3c2C(=O)N(Cc2ccc(-c4ccn(C)n4)cc2)C3)c(F)c1 [Example 420] | 101
* CNC(=O)c1ccc(CN2Cc3cccc(Oc4ccc(C(F)(F)F)cc4F)c3C2=O)cc1 [Example 439] | 96
* Cn1cc(-c2ccc(CN3Cc4cccc(Oc5c(F)cc(F)cc5C#N)c4C3=O)cc2)cn1 [Example 73] | 99
* Cn1cc(-c2ccc(CN3Cc4cccc(OCCN5CCCC5)c4C3=O)cc2)cn1 [Example 8] | 99
* Cn1cc(-c2ccc(CN3Cc4ccnc(OC5CCC5)c4C3=O)c(F)c2)nn1 [Example 338] | 98
* Cn1cc(-c2ccc(CN3Cc4cccc(Oc5c(F)cc(C#N)cc5F)c4C3=O)nc2)cn1 [Example 377] | 83

## Task What value of activity (%) at 10 μM has been reported for the following compound? Cn1cc(-c2ccc(CN3Cc4cccc(Oc5c(F)cccc5C#N)c4C3=O)cc2)cn1 [Example 6]
## Result 90

## Task What value of activity (%) at 10 μM has been reported for the following compound? Cn1cc(-c2ccc(CN3Cc4cccc(OCC(=O)N5CCCCC5)c4C3=O)cc2)cn1 [Example 16]
## Result 106

## Task What value of activity (%) at 10 μM has been reported for the following compound? Cc1nn(C)cc1-c1ccc(CN2Cc3ccnc(OCC(F)(F)c4ccccn4)c3C2=O)c(F)c1 [Example 347]
## Result 97

## Task What value of activity (%) at 10 μM has been reported for the following compound? Cn1cc(-c2ccc(CN3Cc4cccc(O[C@H]5CCC[C@@H]5O)c4C3=O)cc2)nn1 (relative stereo) [Example 235]
## Result 105

## Task What value of activity (%) at 10 μM has been reported for the following compound? Cn1ccc(-c2ccc(CN3Cc4ncnc(Oc5ccc(C(F)F)cc5F)c4C3=O)cc2)n1 [Example 310]
## Result 105

## Task What value of activity (%) at 10 μM has been reported for the following compound? O=C1c2c(ccnc2OCC2CCCO2)CN1Cc1ccc(-n2cccn2)cc1F (stereo not shown) [Example 86]
## Result 104

## Task What value of activity (%) at 10 μM has been reported for the following compound? Cn1ccc(-c2ccc(CN3Cc4ccnc(Oc5ccc(C(F)F)cc5F)c4C3=O)cc2)n1 [Example 380]
## Result 102

## Task What value of activity (%) at 10 μM has been reported for the following compound? O=C1c2c(cccc2O[C@H]2CCCC[C@@H]2O)CN1Cc1ccc(Br)cc1 (relative stereo) [Example 25]
## Result 113

## Task What value of activity (%) at 10 μM has been reported for the following compound? O=C1c2c(cccc2O[C@@H]2CCOC[C@H]2O)CN1Cc1c(F)cc(F)cc1F (single isomer, unassigned) [Example 318]
## Result 99

## Task What value of activity (%) at 10 μM has been reported for the following compound? CC(Oc1nccc2c1C(=O)N(Cc1ccc(-c3cn(C)nn3)cc1F)C2)c1ccccc1F (stereo not shown) [Example 334]
## Result 99

----------
Target: human M1 receptor (hCHRM1) (Homo sapiens)
Assay: Measurement of M1 receptor positive allosteric modulator (M1PAM) activity, calcium fluorescence (FLIPRtetra) in CHO-K1 cells in the presence of acetylcholine at EC20
Conditions: inflection point of M1PAM activity, in the presence of acetylcholine at EC20 (final 0.6 nM), CHO-K1 cells expressing hCHRM1; read-out: IP value
value.kind: pEC50
For clarity, pEC50 is expressed as the negative log10 of concentration in mol/L.

* Cn1cc(-c2ccc(CN3Cc4cccc(Oc5c(F)cc(F)cc5C#N)c4C3=O)cc2)cn1 | 7.62
* Cn1cc(-c2ccc(CN3Cc4cccc(OC[C@H]5CCCO5)c4C3=O)cc2)cn1 | 7.37
* Cn1cc(-c2ccc(CN3Cc4ccnc(OCC5CC5)c4C3=O)c(F)c2)nn1 | 7.80
* NC(=O)c1ccc(CN2Cc3ccnc(Oc4ccc(CC(F)(F)F)cc4F)c3C2=O)cc1F | 7.49
* Cc1ccc(Oc2nccc3c2C(=O)N(Cc2ccc(-n4cnc(C)c4)cc2)C3)c(F)c1 | 7.51
* O=C1c2c(ccnc2O[C@@H]2CCCC[C@H]2O)CN1Cc1cccc(F)c1 (single isomer, unassigned) | 7.49
* NC(=O)c1ccc(CN2Cc3cccc(Oc4ccc(C(F)(F)F)cc4F)c3C2=O)cc1 | 7.77
* Cn1cc(-c2ccc(CN3Cc4cccc(O[C@H]5CCCC[C@@H]5O)c4C3=O)cc2)cn1 (relative stereo) | 8.15

## Task Hi! What's the reported pEC50 for Cc1cc(-c2ccc(CN3Cc4ccnc(O[C@H]5CCC[C@@H]5O)c4C3=O)cc2)ccn1 (relative stereo) on human M1 receptor (hCHRM1) (Homo sapiens)?
## Result 8.14

## Task Hi! What's the reported pEC50 for Cn1cc(-c2ccc(CN3Cc4cccc(OCCN5CCC(F)(F)CC5)c4C3=O)cc2)cn1 on human M1 receptor (hCHRM1) (Homo sapiens)?
## Result 7.22

## Task Hi! What's the reported pEC50 for CNC(=O)c1ccc(CN2Cc3ccnc(Oc4ccc(C)cc4F)c3C2=O)cc1 on human M1 receptor (hCHRM1) (Homo sapiens)?
## Result 8.00

----------
Target: human M1 receptor (hCHRM1) (Homo sapiens, UniProt P11229)
Construct: expressed in transfected cells; host or cells: CHO-K1
Assay: Measurement of M1 receptor positive allosteric modulator (M1PAM) activity, calcium fluorescence (FLIPRtetra) in CHO-K1 cells in the presence of acetylcholine at EC20
Type: cell-based
Details: test compound 10 μM, in the presence of acetylcholine at EC20 (final 0.6 nM), CHO-K1 cells expressing hCHRM1
# maps each entry to its activity (%) at 10 μM
Entry rule: numbers only, all in %.

A selection of reference data follows.
• Cc1cc(-c2ccc(CN3Cc4ccnc(O[C@@H]5CCC[C@H]5O)c4C3=O)cc2)ccn1 (single isomer, unassigned) [Example 243] = 104
• CCC(CO)Oc1nccc2c1C(=O)N(Cc1ccc(-c3cn(C)nc3C)cc1)C2 (single isomer, unassigned) [Example 274] = 102
• O=C1c2c(ccnc2O[C@@H]2CCCC[C@H]2O)CN1Cc1cccc(F)c1 (single isomer, unassigned) = 104

## Task What value of activity (%) at 10 μM has been reported for the following compound? O=C1c2c(cccc2O[C@@H]2COCC[C@H]2O)CN1Cc1ccc(Br)cc1 (single isomer, unassigned)
## Result 97

## Task What value of activity (%) at 10 μM has been reported for the following compound? O=C1c2c(ccnc2OCC2CCCO2)CN1Cc1ccc(-n2cccn2)cc1 (stereo not shown)
## Result 113

## Task What value of activity (%) at 10 μM has been reported for the following compound? O=C1c2c(ccnc2Oc2ccc(C(F)(F)F)cc2F)CN1Cc1ccc(-c2ccnnc2)cc1
## Result 100

## Task What value of activity (%) at 10 μM has been reported for the following compound? Cn1ccc(-c2ccc(CN3Cc4ncnc(Oc5ccc(C(F)(F)F)cc5F)c4C3=O)cc2)n1
## Result 89

----------
Molecular target: human M1 receptor (hCHRM1) (Homo sapiens, UniProt P11229)
Construct: expressed in transfected cells; host or cells: CHO-K1
Experiment: Measurement of M1 receptor positive allosteric modulator (M1PAM) activity, calcium fluorescence (FLIPRtetra) in CHO-K1 cells in the presence of acetylcholine at EC20
Format: cell-based
Details: test compound 10 μM, in the presence of acetylcholine at EC20 (final 0.6 nM), CHO-K1 cells expressing hCHRM1
# maps each entry to its activity (%) at 10 μM

A selection of reference data follows.
* Cn1cc(-c2ccc(CN3Cc4cccc(Oc5cccnc5C#N)c4C3=O)cc2)cn1 | 100%
* Cn1cc(-c2ccc(CN3Cc4ccnc(OC5CCC5)c4C3=O)cc2)cn1 | 97%
* O=C1c2c(cccc2OCC2CCCO2)CN1Cc1ccc(-n2cccn2)cc1 (centres unmarked) | 90%
* Cc1cc(-c2ccc(CN3Cc4cccc(O[C@H]5CCC[C@@H]5O)c4C3=O)cc2)ccn1 (relative stereo) | 107%
* Cn1cc(-c2ccc(CN3Cc4ccnc(OCC5CC5)c4C3=O)cc2)nn1 | 92%
* Cc1nn(C)cc1-c1ccc(CN2Cc3cccc(OCC45CCC(CC4)O5)c3C2=O)cc1 | 93%
* Cc1ccc(Oc2nccc3c2C(=O)N(Cc2ccc(C(N)=O)c(F)c2)C3)c(F)c1 | 100%

Consider now this further compound.
## Task What value of activity (%) at 10 μM has been reported for the following compound? Cn1cc(-c2ccc(CN3Cc4cccc(Oc5c(F)cccc5Cl)c4C3=O)cc2)cn1
## Result 57%
